EXPERIMENT DESCRIPTION: Peptide toxicity, MTT assay
Type: cell-based, human
STUDY CONDITIONS: human, A549 cells
Where a SMILES comes first, the peptide text is derived from it. [ ]: non-standard residue; d: D form.
MEASURED METRIC: viability at 48 h, 500 µg/mL (%)
Answers are plain numbers, in %.

Take a look at these entries with their results.
N=C(N)NCCC[C@H]1NC(=O)[C@H](Cc2c[nH]c3ccccc23)NC(=O)[C@@H]2CCCN2C(=O)[C@@H](CCCNC(=N)N)NC(=O)[C@H](Cc2c[nH]c3ccccc23)NC(=O)[C@@H]2CCCN2C1=O [AOA-4] (cyclo(PW[dR]PW[dR])); 99.8
N=C(N)NCCC[C@@H]1NC(=O)[C@H](Cc2c[nH]c3ccccc23)NC(=O)[C@H]2CCCN2C(=O)[C@H](CCCNC(=N)N)NC(=O)[C@H](Cc2c[nH]c3ccccc23)NC(=O)[C@H]2CCCN2C1=O [AOA-1] (cyclo(R[dP]WR[dP]W)); 99.7
O=C(O)CC[C@@H]1NC(=O)[C@H](Cc2c[nH]c3ccccc23)NC(=O)[C@H]2CCCN2C(=O)[C@H](CCC(=O)O)NC(=O)[C@H](Cc2c[nH]c3ccccc23)NC(=O)[C@H]2CCCN2C1=O [AOA-6] (cyclo(E[dP]WE[dP]W)); 99.1
N=C(N)NCCC[C@@H]1NC(=O)[C@H]2CCCN2C(=O)[C@H](Cc2c[nH]c3ccccc23)NC(=O)[C@H](CCCNC(=N)N)NC(=O)[C@H]2CCCN2C(=O)[C@H](Cc2c[nH]c3ccccc23)NC1=O [AOA-2] (cyclo(RW[dP]RW[dP])); 98.3
CC(=O)N[C@@H](Cc1c[nH]c2ccccc12)C(=O)N1CCC[C@@H]1C(=O)N[C@@H](CCCNC(=N)N)C(=O)N[C@@H](Cc1c[nH]c2ccccc12)C(=O)N1CCC[C@@H]1C(=O)N[C@@H](CCCNC(=N)N)C(=O)O [SXV4] (Ac-W[dP]RW[dP]R-OH); 98.8
N=C(N)NCCC[C@@H]1NC(=O)[C@@H](Cc2c[nH]c3ccccc23)NC(=O)[C@@H]2CCCN2C(=O)[C@H](CCCNC(=N)N)NC(=O)[C@@H](Cc2c[nH]c3ccccc23)NC(=O)[C@@H]2CCCN2C1=O [AOA-3] (cyclo(P[dW]RP[dW]R)); 99.7

Next compound, viability at 48 h, 500 µg/mL to be filled in.
(Q) Fill in reported viability at 48 h, 500 µg/mL for this entry: O=C1N[C@@H](CO)C(=O)N2CCC[C@@H]2C(=O)N[C@@H](Cc2c[nH]c3ccccc23)C(=O)N[C@@H](CO)C(=O)N2CCC[C@@H]2C(=O)N[C@H]1Cc1c[nH]c2ccccc12 [AOA-5] (cyclo(S[dP]WS[dP]W))
(A) 100
